The measured values listed here are drawn from paper PMC6838683.

- assay-system: MRGPRX2 (Homo sapiens, UniProt Q96LB1)
- Construct: host or cells: HTLA cells (HEK293-derived)
- Sequence (Q96LB1 1-330): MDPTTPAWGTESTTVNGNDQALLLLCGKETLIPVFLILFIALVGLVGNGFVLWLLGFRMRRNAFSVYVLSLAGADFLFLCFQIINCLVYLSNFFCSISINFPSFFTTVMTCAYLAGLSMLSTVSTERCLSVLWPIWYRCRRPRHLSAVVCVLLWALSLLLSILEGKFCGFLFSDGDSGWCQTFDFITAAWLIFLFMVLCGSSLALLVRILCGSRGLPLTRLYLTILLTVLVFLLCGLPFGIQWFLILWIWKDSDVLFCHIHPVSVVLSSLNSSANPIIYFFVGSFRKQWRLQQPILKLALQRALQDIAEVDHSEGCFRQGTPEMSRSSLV
- method: β-arrestin recruitment (Tango), known peptide receptors
- Assay type: cell-based
- condition-info: mean, n = 3
reported-property: pEC50, Tango (fold over basal)
The answer should be written as a number, with no unit following it.

Below are worked cases with known answers.
INSERT INTO results (chain_sequence, assay_system, reported_property, recorded_measurement) VALUES
  ('AGCKNFFWKTFTSC (disulfide) [Peptide 103]', 'MRGPRX2 (Homo sapiens, UniProt Q96LB1)', 'pEC50, Tango (fold over basal)', 4.98),
  ('ATVRNEDKWKPLNNPRNRDLFFRRLQAYFK [Peptide 175]', 'MRGPRX2 (Homo sapiens, UniProt Q96LB1)', 'pEC50, Tango (fold over basal)', 4.67),
  ('WYKHVASPRYHTVGRAAGLLMGL [Peptide 151]', 'MRGPRX2 (Homo sapiens, UniProt Q96LB1)', 'pEC50, Tango (fold over basal)', 4.73),
  ('FLWKDLQRVR [Peptide 56]', 'MRGPRX2 (Homo sapiens, UniProt Q96LB1)', 'pEC50, Tango (fold over basal)', 4.90);

Here is the next item to consider.
What the record says about QMAVKKYLAAVL [Peptide 84] : pEC50, Tango (fold over basal) is 5.02

###

- Test system: 120 GPCR targets, including all available orphan receptors and 27 known class A peptide receptors
- method: Peptide library screen, β-arrestin recruitment (Tango, fold change, 10 μM)
- Assay type: cell-based, human
- condition-info: Tango; receptor(s) at which the known library peptide was active, among its known GPCR target(s); validated pairings
reported-property: Active at: (activity in b-arrestin recruitment assays)

Example entries and their recorded answers appear below.
INSERT INTO measurements (chain_sequence, recorded_measurement) VALUES
  ('YGGFLRKYP [Peptide 46]', 'Kappa'),
  ('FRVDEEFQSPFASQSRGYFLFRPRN [Peptide 159]', 'NMUR1'),
  ('YGGFLRRIRPKLKWDNQ [Peptide 119]', 'kappa'),
  ('SRTHRHSMEIRTPDINPAWYASRGIRPVGRF [Peptide 183]', 'PrRP'),
  ('AGCKNFFWKTFTSC (disulfide) [Peptide 103]', 'SST2');

Proceed to the following item.
The recorded Active at: (activity in b-arrestin recruitment assays) for entry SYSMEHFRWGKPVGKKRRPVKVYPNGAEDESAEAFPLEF [Peptide 208] equals MC4R

###

- assay-system: NPY5 (Homo sapiens, UniProt Q15761)
- Construct: host or cells: HTLA cells (HEK293-derived)
- Sequence (Q15761 whole entry): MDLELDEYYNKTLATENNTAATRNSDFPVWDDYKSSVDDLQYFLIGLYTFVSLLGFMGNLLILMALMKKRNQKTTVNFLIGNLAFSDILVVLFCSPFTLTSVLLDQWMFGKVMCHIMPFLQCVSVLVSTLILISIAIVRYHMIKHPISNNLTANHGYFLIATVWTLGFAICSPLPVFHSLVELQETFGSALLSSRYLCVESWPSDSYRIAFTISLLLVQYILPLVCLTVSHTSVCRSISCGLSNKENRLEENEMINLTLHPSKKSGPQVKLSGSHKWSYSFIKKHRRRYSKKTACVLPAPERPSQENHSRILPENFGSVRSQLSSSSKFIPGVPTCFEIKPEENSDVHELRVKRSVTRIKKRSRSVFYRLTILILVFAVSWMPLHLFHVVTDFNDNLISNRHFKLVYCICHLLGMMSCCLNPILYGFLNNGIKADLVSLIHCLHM
- method: β-arrestin recruitment (Tango), known peptide receptors
- Assay type: cell-based
- condition-info: NPY5R; Emax and pEC50 n.d.; n = 3
reported-property: Comment, Tango (fold over basal)

INSERT INTO assay_data (chain_sequence, reported_property, recorded_measurement) VALUES
  ('IQAQLKELRY [Peptide 49]', 'Comment, Tango (fold over basal)', 'Response >1uM'),
  ('SQAFLFQPQRF [Peptide 75]', 'Comment, Tango (fold over basal)', 'Response >1uM'),
  ('VPNLPGRF [Peptide 36]', 'Comment, Tango (fold over basal)', 'Response >1uM');
